Assay: Cytotoxicity against human HepG2 cells assessed as cell viability at 1.3 uM after 72 hrs by WST1 assay (reference value: 100%)
Format: cell-based
Conditions: read-out: Activity
Outcome measure: viability at 72 h, 1.3 µM
For clarity, give the value followed by its unit.

mol=C=C(C)[C@@H]1NC(=O)[C@H](N(C)C)[C@H](O)c2cc(Cl)c(O)c(c2)O[C@](C)(CC)[C@@H](C(=O)N2CC=C[C@H]2C(=O)N/C(C(=O)N/C(=C/C(=O)O)C(=O)O)=C(\C)CC)NC1=O outcome_measure="viability at 72 h, 1.3 µM" recorded_value=85%

Please find the next compound below.
viability at 72 h, 1.3 µM for C=C(C)[C@@H]1NC(=O)[C@H](NC)[C@H](O)c2cc(Cl)c(O)c(c2)O[C@](C)(CC)[C@@H](C(=O)N2CC=C[C@H]2C(=O)N/C(C(=O)N/C(=C/C(=O)O)C(=O)O)=C(\C)CC)NC1=O is 99%

Provenance of the data: ChEMBL document CHEMBL4190219
